Source: patent US7745465B2

# key: entry, value: melting point
result_type: melting point

Cl.OC(CNC1CCCCC1)CON=C(Cl)c1cccc(C(F)(F)F)c1 (stereo not shown): 147 to 149.5 °C
Cl.Cl.N=C(NOCC(O)CN1CCCCC1)c1ccccc1[N+](=O)[O-] (stereo not shown): 200 to 208 °C
Cl.OC(CON=C(Cl)c1nccc2ccccc12)CN1CCCCC1 (stereo not shown): 168 to 172 °C
O=C(O)/C=C\C(=O)O.O=C(OC(CON=C(Cl)c1cccnc1)CN1CCCCC1)c1ccccc1 (stereo not shown): 134 to 136 °C
CN1CCN(CCCONC(=N)c2cccnc2)CC1.Cl: 127 to 130 °C
Cl.O=[N+]([O-])c1ccc(C(Cl)=NOCC(O)CN2CCCCC2)cc1 (stereo not shown): 180 to 182 °C
Cl.OC(CONC(=NC1CCCCC1)c1cccnc1)CN1CCCCC1 (stereo not shown): 130 to 134 °C
